Entry source: the supplement of paper PMC10290057

System: HCT116
Assay info: efficacy (fitted maximal change in viability relative to DMSO control); higher = less cytotoxic (negative = loss of viability)
Measurement conditions: 48 h
Reported metric: efficacy
Note to self: number, then unit, no commentary.

Return reported efficacy; argument: "CCO[C@@H]1OC(=O)C[C@@H]1NC(=O)[C@@H]1CCCN2C(=O)CC[C@H](NC(=O)c3nccc4ccccc34)C(=O)N12"
-15.4%

Similarly, "COC1=CC2=NC=CC(=C2C=C1)OC3=CN=C(NC(=O)C/4=C(C)/N(CC(C)(C)O)N(C4=O)C5=CC=CC=C5)C=C3" ?
-71.6%

Now try "CC[C@@]1(O)C(=O)OCC/2=C1/C=C/3N(CC4=C(CCNC(C)C)C5=CC=CC=C5N=C34)C2=O" .
-80.8%

Another compound to check: "C[C@@H]1C\C2=C(CCC(=O)C2)/[C@H]3CC[C@@]4(C)[C@@H](CC[C@@]4(O)C#C)[C@H]13"
-7.38%

Request: "CSCC[C@@H](NC(=O)[C@@H](Cc1ccccc1)NC(=O)CNC(=O)CNC(=O)[C@@H](N)Cc1ccc(O)cc1)C(=O)O"
-81.4%

Let us now turn to "O=C1Nc2ccc(I)cc2/C1=C/c1cc(Br)c(O)c(Br)c1"
-38%

Then this compound: "Cc1nc(N)sc1-c1ccnc(Nc2ccc(N3CCOCC3)cc2)n1"
-61%

And then "C=CC(=O)Nc1cc2c(Nc3ccc(F)c(Cl)c3)ncnc2cc1C#CC(C)(C)N1CCN(C)CC1" , what is it?
-104%

Also need "N#CC[C@H](C1CCCC1)n1cc(-c2ncnc3[nH]ccc23)cn1" , thanks.
-67.4%

Would you kindly repeat that for "OCCN(CCO)c1nc(N2CCCCC2)c2nc(N(CCO)CCO)nc(N3CCCCC3)c2n1" ?
-30.3%

And for "O=C1\C=C(OC2=C(C=CC=C12)C3=CC=CC4=C3SC5=C4C=CC=C5)\N6CCOCC6" ?
-76.8%

* * *

Test system: HCT116
Assay info: AC50 cell viability (CellTiter-Glo); higher = less potent
Measurement conditions: 48 h
Examples of compounds with documented AC50 cell viability follow.
Kindly answer with a numeric value in nM, unit omitted.

Look over these answered cases.
- Compound: "NC(=O)c1ccccc1Nc1ccnc(Nc2cccc(O)c2)n1"
  AC50 cell viability [nM]: 5900
- Compound: "COc1c(C)c2c(c(O)c1C/C=C(\\C)CCC(=O)OCCN1CCOCC1)C(=O)OC2 [Mycophenolate mofetil]"
  AC50 cell viability [nM]: 2630

// AC50 cell viability lookup, key: "CN1CCN(CC1)C2=CC=C(NC3=NC=C4\C=C(\C#N)C(=O)N(C5CCCC5)C4=N3)C=C2"
1320

Moving on to the next compound: "CC1=NN=C(C[C@@H]2\C=C(C3=CC=C(Cl)C=C3)/C4=CC=CC=C4[N]5C(=NN=C25)C)O1"
934

* * *

System: HCT116
Assay info: efficacy (fitted maximal change in viability relative to DMSO control); higher = less cytotoxic (negative = loss of viability)
Measurement conditions: 48 h
Reported efficacy values for the following molecules.
Entry rule: numbers only, all in %.

Any idea what its efficacy is? The molecule is CCC(=O)O[C@@]1([C@H](C)C[C@H]2[C@@H]3C[C@H](F)\C4=C\C(=O)\C=C/[C@]4(C)[C@@]3(F)[C@@H](O)C[C@]12C)C(=O)SCF [Fluticasone propionate]
-11.6

What about Cc1nc(Nc2ncc(C(=O)Nc3c(C)cccc3Cl)s2)cc(N2CCN(CCO)CC2)n1 [Dasatinib] ?
-81.1

Would you kindly repeat that for CC[S+](=O)([O-])N1CC(CC#N)(n2cc(-c3ncnc4[nH]ccc34)cn2)C1 [Baricitinib] ?
-91.6

* * *

Test system: HCT116
Assay info: efficacy (fitted maximal change in viability relative to DMSO control); higher = less cytotoxic (negative = loss of viability)
Measurement conditions: 48 h
Structures can show the parent of a compound that is named as a salt.
The entries below come with measured efficacy values attached.
Numeric answer only, unit % assumed.

Some compounds with recorded efficacy:
- Compound: "COc1cccc2c1C(=O)c1c(O)c3c(c(O)c1C2=O)C[C@@](O)(/C(CO)=N/NC(=O)CCCCCN1C(=O)C=CC1=O)C[C@@H]3O[C@H]1C[C@H](N)[C@H](O)[C@H](C)O1 [Aldoxorubicin hydrochlorid]"
  Target or system: "HCT116"
  efficacy / %: -73.6
- Compound: "CCOc1cc2ncc(C#N)c(Nc3ccc(F)c(Cl)c3)c2cc1NC(=O)/C=C/CN(C)C"
  Target or system: "HCT116"
  efficacy / %: -97.7
- Compound: "CCC[S+](=O)([O-])Nc1ccc(F)c(C(=O)c2c[nH]c3ncc(Cl)cc23)c1F"
  Target or system: "HCT116"
  efficacy / %: -38.4

Continue with the next compound.
Bench note: what efficacy did NC[C@H](O)c1ccc(O)c(O)c1 [Noradrenaline bitartrate monohydrate] show?
10.7
